Tested on: Trypanosoma cruzi
Test: GSK_TCAKS: pIC50 Trypanosoma cruzi viability assay using beta-GAL activity. This assay was run at single shot at 5uM compound concentration per well. The biological reagents consisted of NIH-3T3 host cells and trypomastigotes parasitic cells; both cell types were set to a 3.3 * 10^5 cells/mL dilution in assay DMEM by means of a CASY cell counter device using a 60um capillary. 6 uL of the mixture were dispensed per well (about 1 * 10^3 host-cells and 1 * 10^3 parasites) with a Multidrop Combi dispenser. […] In all wells, the percentage of DMSO never exceeded 0.5%. Plates incubated for four days at 37C, 5% CO2. The substrate used for the assay fluorescence intensity (FLINT) readout was resorufin-beta-D-galactopiranoside (Sigma-Aldrich) at 5uM per well. It was diluted in PBS supplemented with the soft detergent Igepal (Fluka).
Assay type: functional, organism-based, Mus musculus
Conditions: Tulahuen, NIH3T3
Reported pIC50 is given for each of the following compounds.
Note on pIC50: it is the negative log10 of concentration, concentration in mol/L.

// solved cases for pIC50 follow
compound	measurementType	testValue
CCOc1cnn(C)c(=O)c1Nc1ccc(C(=O)NCc2ccc(F)cc2)cc1	pIC50	6.60
CC(C(=O)Nc1ccc(Br)cc1)N1CCN(c2ccc([N+](=O)[O-])cc2)CC1 (stereo unspecified)	pIC50	5.60

Hello, please tell me recorded pIC50 for this one: CCCCN(C(=O)c1ccc(NC(=O)C(C)C)cc1)c1ccccc1 4.70

Return pIC50 (reported value) for this compound: COc1ccc(-c2cc(C)no2)cc1S(=O)(=O)Nc1ccc(C)c(C)c1 5.30

Read the entry Cn1ccnc1CN1CCc2[nH]cnc2C1c1ccccc1OCc1ccccc1 (stereo unspecified) and write its reported pIC50. 4.40

Give the value of pIC50 reported for the following: O=C(Nc1ccc(Br)c(Cl)c1)Nc1ccc2c(c1)OCO2 5.60

###

Test system: Trypanosoma cruzi
Experiment: GSK_TCAKS: pIC50 Trypanosoma cruzi Imaging: Infected Cells. […] Cells were then washed once with PBS before infection. T. cruzi trypomastigotes, collected at days 5 to 8 after infection from LLC-MK2 parasite infected cultures, were allowed to swim out for 4h at 37C from a centrifuged pellet (2,500 rpm/10 min/room temperature). Trypomastigotes were then collected and counted in a CASY Cell Counter. Trypomastigotes, in supplemented DMEM, were added to H9c2 cultures in a multiplicity of infection of 1 and incubated for 18 h. Cells were washed once with PBS before incubation of the infected H9c2 monolayer with trypsin (Life-Technologies) to detach cells from the flask. Cells were counted in a CASY Cell Counter using a 150 um capillary and their density set at 5 * 10^4 cells per mL in supplemented assay DMEM. Infected H9c2 were dispensed into 384-well poly-lysine coated assay plates at 50uL per well using a Multidrop Combi dispenser. After seeding them, the plates were incubated at 37C, 5% CO2 for 72h. Cultures were then fixed and stained by addition of 50 uL of a solution containing 8% formaldehyde and 4 uM DRAQ5 DNA dye (BioStatus, UK) per well. […] Five images were collected per well for reliable statistical analysis. Automated image analysis was performed with a script developed on Acapella High Content Imaging and Analysis Software (PerkinElmer). Output: percentage of infected cells per well as a second infection marker.
Assay type: functional, organism-based, Rattus norvegicus
Conditions: H9c2, 4 h
measurementType: IC50

A selection of reference data follows.
chemicalSmiles	IC50
O=C(Nc1nc2ccccc2[nH]1)c1ccc2[nH]cnc2c1	> 50.1 µM
O=[N+]([O-])c1ccc(-c2nnn(-c3cccnc3)n2)o1	> 50.1 µM
CC(C)C[C@H](NC(=O)c1ccc(-c2ccccc2)o1)C(=O)NC1(C#N)CC1	> 50.1 µM
CC(=O)Nc1ccc(-c2cnc(N)c(-c3nc4ccc(F)cc4[nH]3)c2)cc1	> 50.1 µM
CCCCCNC(=O)c1c[nH]c2ccc(S(=O)(=O)N(C)c3ccc(OCC)cc3)cc2c1=O	> 50.1 µM

Would you kindly look at the next entry?
Recall the reported IC50 of CCc1cccc(-n2nc(OCC(=O)NC3CCCC3)c3cccnc32)c1 on Trypanosoma cruzi and write it down. > 50.1 µM

###

Test system: Trypanosoma brucei brucei
Experiment: GSK_TCAKS: pIC50 Trypanosoma brucei viability assay using luminiscence. Assay plates (1536-well) were prepared. T. brucei cultures were harvested and counted in a CASY cell counter. A parasite suspension was prepared at a final concentration of 5 * 10^4 cells/mL in complete HMI9 medium and 6uL was dispensed to all wells containing compounds using a Multidrop Combi dispenser. 6uL of HMI9 media with 0.4% DMSO were dispensed to control columns. Plates were incubated for 24 h at 37C, 5% CO2 then tempered for 10 min at room temperature. ATP content was quantified by adding 4 uL of CellTiter-Glo Reagent (Promega) according to the manufacturer's instructions. Luminescence was measured using a ViewLux.
Format: functional, organism-based
Conditions: Lister 427, CASY
measurementType: IC50 (nM)
State just the number; it will be interpreted in nM.

Worked examples, 4 compounds total:
compound	testValue
COc1cnc2ccc(=O)n(CCN3CCC(NC/C=C/c4cc(F)ccc4F)CC3)c2c1	794
COc1cccc(S(=O)(=O)Nc2ccc3c(c2)CC(N2CCC(NC(=O)C4CC4)CC2)C3)c1 (stereo not drawn)	794
CS(=O)(=O)c1ccc(Nc2nccc(Nc3n[nH]c4ccc(F)cc34)n2)c(F)c1	794
c1ccc(-c2nc(NC3CCCC3)c3ccccc3n2)nc1	6310

Answer with reported IC50 of Cc1nn2c(=O)c3c([nH]c2c1-c1ccc(Br)cc1)CCCC3 794

Please list IC50 recorded for the compound CN(Cc1cccnc1)Cc1ccc(N2CCN(C(=O)C3(c4ccc(Cl)cc4)CC3)CC2)nc1 25100

Recall and state the measured IC50 for COc1ccc(NS(=O)(=O)c2cccc(NC(=O)c3cc(F)cc(F)c3)c2)cc1 . 1000

For the compound NCC(Cc1ccccc1)NC(=O)c1cnc(-c2c[nH]c3ncccc23)s1 (stereo not drawn) , give its measured IC50 value. 1000

Hello, please tell me recorded IC50 for this one: CC(C)(C)CC(=O)NCCc1csc(-c2ccc(F)cc2)n1 501

State its IC50: c1ccc2sc(Nc3nc4ncccc4[nH]3)nc2c1 1580

Hello, please tell me recorded IC50 for this one: O=C1CN(Cc2ccco2)C2CS(=O)(=O)CC2N1c1ccc(Cl)cc1 (stereo not drawn) 251

###

Test system: Leishmania donovani
Assay: GSK_TCAKS: pIC50 Leishmania donovani viability assay using fluorescence intensity. Assay plates (1536-well) were prepared by adding 30nL per well of compound. For single shot assay, the final compound concentration was 5uM. […] Briefly, eGFP LdBOB axenic amastigotes were harvested, fixed and counted in a CASY cell counter (Roche-Applied Science). A final concentration of 1.5 * 10^5 cells per well were prepared in amastigote media containing 500 U/mL penicillin/streptomycin (Invitrogen) and 6uL was dispensed to each experimental well using a Multidrop Combi dispenser (Thermo Scientific). 6uL of assay media was dispensed to control columns used as reference for 100% compound response. Following incubation for 72 h at 37C, 5% CO2, 2 uL of resazurin was added to each well at a final concentration of 0.5 mM in phosphate buffered saline (PBS) with IGEPAL (Sigma-Aldrich), 0.05% (v/v).
Type: functional, organism-based
API: label(entry) gives yes (1) if the entry's IC50 is strictly smaller than 2 µM; on equality or larger values it gives no (0).

compound	targetEntity	group
CC(C(=O)Nc1ccc(Br)cc1)N1CCN(c2ccc([N+](=O)[O-])cc2)CC1 (stereo not drawn)	Leishmania donovani	no (0)
C=CCOCC1Cn2nc([N+](=O)[O-])nc2O1 (stereo not drawn)	Leishmania donovani	no (0)
CN1CCN(c2nc(-c3ccc(Cl)cc3)c3c(N)n(C)nc3n2)CC1	Leishmania donovani	no (0)
O=C(c1ccc(OCCCc2cnc[nH]2)cc1)C1CC1	Leishmania donovani	no (0)
Cn1nccc1NC(=O)Cn1ccc(-c2ccncc2)n1	Leishmania donovani	no (0)

Answer whether the compound COc1cc(OC)cc(C(=O)N[C@@H](CC(C)C)C(=O)NC2(C#N)CC2)c1 has IC50 strictly less than 2 µM no (0)

Quick check: does CC(=O)Nc1ccc(-c2noc(CC3CCCN(Cc4cccc(F)c4C)C3)n2)cc1 (stereo not drawn) have IC50 under 2 µM? no (0)

Would you kindly verify if IC50 of CN(Cc1ccc(C(N)=O)cc1)C(c1ccc(F)cc1)c1cccnc1 (stereo not drawn) is strictly less than 2 µM? no (0)

Check if IC50 falls below 2 µM for Cc1ccc(NC(C)C(=O)Nc2ccc(C#N)cc2)cc1S(=O)(=O)N1CCCCC1 (stereo not drawn) . yes (1)

hey, is IC50 for CCNc1cc(-c2ccccn2)nc(Nc2ccc(OC)cc2)n1 lower than 2 µM or not? yes (1)

Please check: IC50 for CCC(=O)Nc1ccc(C(=O)Nc2ccccc2-c2ccccc2)cc1 , strictly under 2 µM or not? no (0)

Please indicate whether the reported IC50 of O=C(Nc1nc2cc(Cl)ccc2o1)c1cccc(Cl)c1 is strictly below 2 µM. yes (1)

Threshold test, IC50 < 2 µM: COc1cccc2sc(CN(C)C(=O)C3CNCCN3c3ccc(F)cc3)c(C)c12 (stereo not drawn) no (0)
